- MEASURED TARGET: recombinant human GITR (Cat No. 13643-H08H, Lot No. LC12JA2509, Sino Biological) (human) (UniProt Q9Y5U5)
- METHOD: SPR Biacore 8K, single-cycle kinetics, IgG in supernatant captured on Protein A, GITR as analyte
Examples of binders with documented Kd follow.
The response must be a number in nM with no trailing unit.

anti-GITR 51B VH5/VL5 humanized antibody (human IgG1, kappa) (antibody, V domains shown) VH: QVQLVQSGAEVKKPGASVKVSCKTTGYRFTGYWIDWVRQPPGKGLEWIGEILPGSGATYYSENFKGKVTITADTSTDTAYMELSSLRSEDTAIYYCARKGGYYAMDYWGQGTLVTVSS VL: EIVLTQSPATLSLSPGERATLSCTASSSVSSSYFHWYQQKPGKAPKLWIYSTSNLESGVPDRFSGSGSGTDYTLTISSLQAEDVATYYCHLYHRSPRTFGGGTKVEIKR
3.32

// next item, Kd requested
Q: Find the recorded Kd belonging to anti-GITR 51B VH4/VL1 humanized antibody (human IgG1, kappa) (antibody, V domains shown) VH: QVQLVQSGAEVKKPGASVKVSCKTTGYRFTGYWINWVRQPPGKGLEWIGEILPGSGATYYSENFKGKVTITADTSTDTAYMELSSLRSEDTAIYYCARKGGYYAMDYWGQGTLVTVSS VL: QIVLTQSPAIMSASLGERVTMSCTASSSVSSSYFHWYQQKPGSAPKLWIYSTSNLASGVPDRFSGSGSGTDYTLTVSSLQAEDVATYYCHLYHRSPRTFGGGTTVDIKR and report it.
A: 1.05
